experimental-target: T1, extracellular domain of activin receptor type IIB (ActRIIBecd), biotinylated (Homo sapiens (Human), UniProt Q13705 27-117, amino-biotinylated with amine-PEG3-Biotin)
T1 construct: immobilised on a streptavidin-coated sensor chip; also called biotinylated ActRIIBecd; extracellular domain of ActRIIB
T1 sequence: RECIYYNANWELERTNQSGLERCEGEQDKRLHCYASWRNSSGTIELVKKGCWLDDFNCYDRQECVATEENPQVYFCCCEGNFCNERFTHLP
experiment: BIAcore SPR, biotinylated ActRIIBecd on chip; SD ±16.51 nM
pKd: −log10 of the molar value.
observed-property: pKd

binder	observed-result
Recombinant polypeptide of clones 14 + 8 (designed binder) VDFKDVGWNDHAVAPPGYHAFYCHGECPFPLADHLNSDNHAIVQTKVNSVGQAKRKGYKRLKSSCKRHPLY	7.47
